Every entry's value here was drawn from patent US20250333501A1.

Molecular target: T1, CLDN6 endogenously expressed by human cancer cell lines (ARK2, OVCA429) (human, UniProt P56747 1-220)
T1 construct: Untagged endogenous protein; also called Endogenous CLDN6+
T1 sequence: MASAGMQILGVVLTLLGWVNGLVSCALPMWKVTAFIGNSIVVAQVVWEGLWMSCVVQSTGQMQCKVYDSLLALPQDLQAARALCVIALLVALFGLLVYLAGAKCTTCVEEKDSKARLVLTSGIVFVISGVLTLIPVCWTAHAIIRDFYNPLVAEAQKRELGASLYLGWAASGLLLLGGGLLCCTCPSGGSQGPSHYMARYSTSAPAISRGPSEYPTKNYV
Assay: FACS, 1.5 µg Ab, ARK2 cells
Protocol: FACS assays were also carried out to determine relative antigen binding strengths of the humanized antibodies (at either 1.5 μg or 0.3 μg) for binding to CLDN6 as expressed by the indicated cancer cell lines. 2nd Ab only was used as a negative control.
Recorded Metric: FACS fluorescence
Output: the number by itself.

Some solved cases for reference:
Binder	FACS fluorescence
AB4-5 (antibody, V domains shown, also called Humanized AB 4-5) VH: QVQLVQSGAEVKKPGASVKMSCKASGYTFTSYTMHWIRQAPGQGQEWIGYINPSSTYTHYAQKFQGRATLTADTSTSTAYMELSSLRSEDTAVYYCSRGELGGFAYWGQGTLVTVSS VL: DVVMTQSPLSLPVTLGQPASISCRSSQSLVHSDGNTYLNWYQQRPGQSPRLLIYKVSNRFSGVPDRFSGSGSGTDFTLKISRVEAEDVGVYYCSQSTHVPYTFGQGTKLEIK	1200
AB3-4 (antibody, V domains shown, also called Humanized AB 3-4) VH: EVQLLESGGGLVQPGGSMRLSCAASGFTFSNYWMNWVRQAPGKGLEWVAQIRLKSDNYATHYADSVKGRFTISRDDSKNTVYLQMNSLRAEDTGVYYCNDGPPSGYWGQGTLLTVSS VL: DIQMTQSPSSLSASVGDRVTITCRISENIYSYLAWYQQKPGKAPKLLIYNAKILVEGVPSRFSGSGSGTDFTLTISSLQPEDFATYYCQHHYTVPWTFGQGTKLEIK	1460
AB4-3 (antibody, V domains shown, also called Humanized AB 4-3) VH: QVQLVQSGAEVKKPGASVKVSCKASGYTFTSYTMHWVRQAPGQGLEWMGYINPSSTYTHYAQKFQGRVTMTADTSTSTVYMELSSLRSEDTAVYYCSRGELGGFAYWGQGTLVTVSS VL: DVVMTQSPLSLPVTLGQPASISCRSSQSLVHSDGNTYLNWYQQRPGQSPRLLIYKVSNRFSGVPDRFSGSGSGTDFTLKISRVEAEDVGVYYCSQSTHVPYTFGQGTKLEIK	1520
AB9-3 (antibody, V domains shown, also called Humanized AB 9-3) VH: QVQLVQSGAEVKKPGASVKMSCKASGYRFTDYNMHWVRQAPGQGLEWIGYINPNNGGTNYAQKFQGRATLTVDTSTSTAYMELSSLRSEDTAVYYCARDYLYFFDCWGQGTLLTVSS VL: DIQMTQSPSSLSASVGDRVTITCLASQTIGTWLAWYQQKPGKAPKLLIYAAASLADGVPSRFSGSGSGTDFTFTISSLQPEDFVTYYCQQLYSIPRTFGQGTKLEIK	1470

Shifting focus to the binder that follows.
For the binder AB1-11 (antibody, V domains shown, Humanized; also called Humanized AB 1-11) VH: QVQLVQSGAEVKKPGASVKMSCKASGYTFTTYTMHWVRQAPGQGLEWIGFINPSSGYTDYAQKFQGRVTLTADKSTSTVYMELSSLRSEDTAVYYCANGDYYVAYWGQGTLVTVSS VL: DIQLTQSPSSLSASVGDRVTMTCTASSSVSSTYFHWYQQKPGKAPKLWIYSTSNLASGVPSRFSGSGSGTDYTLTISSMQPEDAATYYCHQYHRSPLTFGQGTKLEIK , what FACS fluorescence is on record?
97700
